B1: IKZF1 (parent)
chain: YHSQDRYEFSSHITRGEHRFHMS

variants of: B1; assay: protein stability index of a GFP-peptide fusion (GPS, HEK-293T) (PSI 1-6); higher = more stable; conditions: c terminus: native;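 also: lentivirally expressed fusions sorted by FACS into six bins by GFP to DsRed ratio, PSI derived from sequencing read proportions per bin multiplied by bin number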
Kindly state protein stability index for each of the entries shown.
Numbers only.

Mutation Label	Property Name	Numeric Readout
R6E	protein stability index	2.29

Provide protein stability index values for the following items, in order.
1. I13L
2. T14D

// result
2.52
1.83

# batch: return protein stability index for each of the 3 variants below
1. R15E
2. Y1G
3. H18S

// result
1. 1.81
2. 3.97
3. 1.83

Lab note: each variant below needs its protein stability index filled in.
1. H2W
2. E8W
3. R15M
4. E17M
5. R19D

// result
2.41
2.44
1.47
1.71
1.93
